- protocol conditions: 298.15 K; 101.33 kPa; Liquid; Vibrating tube method
property name: mass density (kg/m3)

CCCCCCCCCC : 726.3
CC(C)OC(C)C : 718.7
CCC(C)CC : 659.94
CCCCCCCC : 698.72
